B1: HDV Ribozyme (parent)
chain: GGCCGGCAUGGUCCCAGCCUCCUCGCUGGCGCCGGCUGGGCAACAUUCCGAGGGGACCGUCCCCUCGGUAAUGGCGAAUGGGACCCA

# Variants of: B1
# ASSAY NOTES: self-cleavage, relative activity (ratio to wild type); higher = more cleavage; co-transcriptional
TEST READOUT: self-cleavage
Give your answer as a number; write no unit.

input: Need self-cleavage of A16C U23G , thanks.
output: 0.688

input: Need self-cleavage of C63A C84U , thanks.
output: 0.717

input: Need self-cleavage of C7U U46G , thanks.
output: 0.68
